test system: P12-Ichikawa; experiment: cell viability relative to DMSO control; higher = less cytotoxic; conditions: RPMI 5 mM glucose + 10% dialyzed FBS; 48 h; 1.71 µM
Mark rule met only for cell viability values smaller than 90%; exact matches and larger values are rule not met.

{"columns": ["compound", "cat"],
 "data": [
  ["OC[C@@H](O)[C@@H](O)[C@H](O)[C@@H](O)CO", "rule not met"]
]}

Okay, next one:
Input line: Dear reviewer, please state whether `COc1cc(F)c(F)c(Nc2ccc(I)cc2F)c1N[S+](=O)([O-])C1(C[C@H](O)CO)CC1` has cell viability strictly beneath 90%.
Output line: rule not met

----------
test system: P12-Ichikawa; test: AUC of viability dose-response curve (% viability x log10 dose units); higher = less sensitive; details: RPMI 5 mM glucose + 10% FBS; 48 h
metric: AUC of viability dose-response curve
One number for each entry.

Sample answers from the record:
{"columns": ["molecule", "metric", "value observed"],
 "data": [
  ["CN1CCN(C2=Nc3cc(Cl)ccc3Nc3ccccc32)CC1", "AUC of viability dose-response curve", 472],
  ["C[C@@]12C(=O)OC(=O)[C@@]1(C)C1CCC2O1", "AUC of viability dose-response curve", 405],
  ["C[C@]12CC[C@H]3[C@@H](CC[C@H]4NC(=O)\\C=C/[C@]34C)[C@@H]1CC[C@@H]2C(=O)NC5=CC(=CC=C5C(F)(F)F)C(F)(F)F", "AUC of viability dose-response curve", 455],
  ["CCNC(=O)C[C@H]1/N=C(/C2=CC=C(Cl)C=C2)C3=CC(=CC=C3[N]4C(=NN=C14)C)OC", "AUC of viability dose-response curve", 460],
  ["CN(C)[S+](=O)([O-])c1ccc2c(c1)C(=Cc1cc3c([nH]1)CCCC3)C(=O)N2", "AUC of viability dose-response curve", 464]
]}

Answer for every listed entry: what is its AUC of viability dose-response curve? The entries follow.
1. COC\1=C(/OC)C(=O)\C(=C(C)/C1=O)CCCCCCCCCCO
2. COC(c1ccccc1)(c1ccccc1)[C@H](Oc1nc(C)cc(C)n1)C(=O)O
3. COc1ccccc1OCC(O)COC(N)=O (stereo unspecified)
4. COc1cc(OC2CCN(C)CC2)ccc1Nc1ncc2c(n1)n(C1CCCC1)c(=O)n2C

Output line:
[456, 465, 461, 380]

Items follow; give AUC of viability dose-response curve for each.
1. C1=C/COCc2cc(ccc2OCCN2CCCC2)Nc2nccc(n2)-c2cccc(c2)OCC/1
2. C[C@H]1C[C@@H]2[C@H](CC[C@@]3(C)[C@H]2CC[C@]3(OC(C)=O)C(C)=O)[C@@]\4(C)CCC(=O)\C=C14
3. CN[C@@H]1[C@@H](O)[C@@H](O[C@@H]2[C@@H](O)[C@H](O[C@H]3O[C@H](CN)[C@@H](O)[C@H](O)[C@H]3O)[C@@H](N)C[C@H]2NC(=O)[C@@H](O)CN)OC[C@]1(C)O
4. CC(C)c1nc(CN(C)C(=O)N[C@H](C(=O)N[C@@H](Cc2ccccc2)C[C@H](O)[C@H](Cc2ccccc2)NC(=O)OCc2cncs2)C(C)C)cs1
5. CCCc1cc(C(N)=S)ccn1
6. C[C@H](CCC(=O)O)[C@H]1CC[C@H]2[C@@H]3[C@@H](O)C[C@@H]4C[C@H](O)CC[C@]4(C)[C@H]3CC[C@]12C
7. CCOC(=O)[C@@H](N)Cc1ccc(-c2cc(O[C@H](c3ccc(Cl)cc3-n3ccc(C)n3)C(F)(F)F)nc(N)n2)cc1.O=C(O)CNC(=O)c1ccccc1

Output line:
1: 415; 2: 446; 3: 449; 4: 411; 5: 436; 6: 461; 7: 453
